For each record, write down the corresponding peptide exchange yield.
biological target: T1, HLA-A*02:01 (peptide-receptive MHC class I monomer after UV cleavage of the UV-sensitive ligand) (human); experiment: UV ligand-exchange ELISA; exchange yield grade (+ >=10%, ++ >=20%, +++ >=50%, ++++ >=75%)
T1 construct: MHC monomers loaded by UV-ligand exchange and captured on streptavidin plates

Value lookup for peptide exchange yield; key = VLTPVILQV [VLTPVILQV (SEQ ID NO: 105)] 50 to 75%

Request: SLLNHLPYL [SLLNHLPYL (SEQ ID NO: 280)] ≥ 75%

Now try YLTGYNFTL [YLTGYNFTL (SEQ ID NO: 121)] . 50 to 75%

And FLSNANPSL [FLSNANPSL (SEQ ID NO: 28)] ? 50 to 75%

Also, FLNSFVFKM [FLNSFVFKM (SEQ ID NO: 187)] please. 20 to 50%

What about this binder? ALVEDIINL [ALVEDIINL (SEQ ID NO: 23)] ≥ 75%

# repeat for TLIAAILYL [TLIAAILYL (SEQ ID NO: 16)] 20 to 50%

Query QLTEMLPSI [QLTEMLPSI (SEQ ID NO: 266)] next ≥ 75%

Another: ALLSAFVQL [ALLSAFVQL (SEQ ID NO: 123)] 50 to 75%

Field entry: GLLPKLTAL [GLLPKLTAL (SEQ ID NO: 47)] 50 to 75%

# repeat for VIIPLLSSV [VIIPLLSSV (SEQ ID NO: 17)] 50 to 75%

And FLFEDFVEV [FLFEDFVEV (SEQ ID NO: 140)] ? 50 to 75%

Now the binder FILDDSALYL [FILDDSALYL (SEQ ID NO: 45)] 50 to 75%

What do you have for ALADLVPVDVVV [ALADLVPVDVVV (SEQ ID NO: 76)] ? ≥ 75%

Can you check FIQQERFFL [FIQQERFFL (SEQ ID NO: 137)] next? 50 to 75%

Next binder: VLFPLPTPL [VLFPLPTPL (SEQ ID NO: 268)] ≥ 75%
